EXPERIMENTAL TARGET: T1, human transferrin receptor (recombinant, for surface plasmon resonance) (human, UniProt P02786 89-760)
T1 construct: also called huTfR; human transferrin receptor-biotinylated
T1 sequence (P02786 89-760 limits assumed): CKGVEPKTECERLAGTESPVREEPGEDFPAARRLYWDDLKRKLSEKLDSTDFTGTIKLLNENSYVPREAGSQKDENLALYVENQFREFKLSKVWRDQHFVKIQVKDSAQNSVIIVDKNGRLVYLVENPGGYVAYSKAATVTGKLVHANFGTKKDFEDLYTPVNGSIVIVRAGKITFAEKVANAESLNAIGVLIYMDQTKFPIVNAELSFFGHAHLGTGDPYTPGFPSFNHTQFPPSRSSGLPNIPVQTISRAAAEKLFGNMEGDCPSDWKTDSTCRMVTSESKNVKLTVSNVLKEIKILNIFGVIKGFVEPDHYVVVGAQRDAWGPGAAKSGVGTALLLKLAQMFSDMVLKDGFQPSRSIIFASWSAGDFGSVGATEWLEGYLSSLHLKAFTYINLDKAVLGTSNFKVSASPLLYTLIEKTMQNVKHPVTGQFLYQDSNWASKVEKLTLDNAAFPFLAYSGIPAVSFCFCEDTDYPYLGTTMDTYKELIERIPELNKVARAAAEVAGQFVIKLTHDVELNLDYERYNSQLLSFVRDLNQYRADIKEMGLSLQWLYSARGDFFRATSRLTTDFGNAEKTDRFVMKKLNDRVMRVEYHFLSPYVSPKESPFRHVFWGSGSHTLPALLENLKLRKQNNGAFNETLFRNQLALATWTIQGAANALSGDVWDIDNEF
EXPERIMENT: SPR 25C
OUTCOME MEASURE: koff (s⁻¹)
Give a bare numeral; the unit s⁻¹ is implied.

2/99 VH19/VL14 (antibody, V domains shown) VH: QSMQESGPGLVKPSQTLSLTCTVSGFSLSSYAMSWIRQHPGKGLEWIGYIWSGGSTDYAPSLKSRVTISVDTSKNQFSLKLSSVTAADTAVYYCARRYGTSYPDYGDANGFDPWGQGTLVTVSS VL: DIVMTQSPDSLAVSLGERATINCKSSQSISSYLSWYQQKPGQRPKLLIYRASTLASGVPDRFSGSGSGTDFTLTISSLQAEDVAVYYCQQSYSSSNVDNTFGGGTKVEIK: 0.00796

The record that follows has no koff shown yet.
Quick one: koff for 2/99 VH9/VL10 (antibody, V domains shown) VH: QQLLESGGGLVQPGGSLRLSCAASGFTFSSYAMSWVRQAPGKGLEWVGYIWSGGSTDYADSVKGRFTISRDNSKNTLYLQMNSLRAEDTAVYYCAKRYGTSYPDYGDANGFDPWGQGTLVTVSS VL: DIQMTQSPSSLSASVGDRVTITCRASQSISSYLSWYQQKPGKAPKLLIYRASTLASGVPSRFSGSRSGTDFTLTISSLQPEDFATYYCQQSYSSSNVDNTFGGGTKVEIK ?
0.00719

Attribution: patent US20180291110A1
